- Test system: SNB-75 CNS
- Protocol details: NCI-60 one-dose screen, 48 h (100 = growth as untreated, 0 = no growth, -100 = all killed)
- Experimental conditions: 10 µM unless noted
The panel holds about 83,000 compounds, 20% with a hit somewhere; the sample as a whole holds those more often.
Metric name: growth (%)
Supply the numeric figure in %, leaving out any unit text.

INSERT INTO assay_data (molecule, metric_name, result_number) VALUES
  ('COC(=O)Nc1nc2ccc(C3(c4ccc(F)cc4)OCCO3)cc2[nH]1', 'growth', 10.3),
  ('O=C1c2ccccc2C(=O)c2c(O)c(Cl)cc(O)c21', 'growth', 96),
  ('COc1cccc2c1C(=O)c1c(O)c3c(c(O)c1C2=O)C[C@@](O)(C(=O)CO)C[C@@H]3OC1CC(OC(C)=O)C(OC(C)=O)C(C)O1 (stereo not given in full)', 'growth', -30.9),
  ('CCN1CCCC(Nc2cc(C)nc(/N=C(/N)Nc3ccc(Cl)c(Cl)c3)n2)C1 (stereo not given)', 'growth', -76.8);

Then there is this molecule:
Task item: So what's the measured growth for this one? Oc1ccccc1N=Cc1ccccc1
Reply: 132

* * *

- System: OVCAR-4 ovarian
- Protocol details: NCI-60 one-dose screen, 48 h (100 = growth as untreated, 0 = no growth, -100 = all killed)
- Experimental conditions: 10 µM unless noted
The panel holds about 83,000 compounds, 20% with a hit somewhere; the sample as a whole holds those more often.
So basically every entry gets a class from its growth, ranges being lower range = under 50%, middle range = from 50% up to 90%, upper range = 90% and over

The examples below pair each entry with its known result.
INSERT INTO measurements (molecule, category) VALUES
  ('Cc1cccc2c(N)c3ccccc3nc12', 'lower range'),
  ('Cc1ccc2cccc(OC(=O)Nc3cccc(C(F)(F)F)c3)c2n1', 'middle range');

Task item: Quick check: band for Cc1onc(-c2ccccc2)c1C(=O)N/N=C/c1cc(Cl)cc(Cl)c1O
Reply: lower range

Task item: Quick check: band for c1ccc2sc(SSN3CC4CCC(CC4)C3)nc2c1
Reply: upper range

Task item: Quick check: band for CCc1cccc(CC)c1N1C(=O)C=CC1=O
Reply: upper range

Task item: Quick check: band for Cc1ccc(N2C(=O)C=CC2=O)cc1
Reply: upper range

Task item: Quick check: band for [Cl-].[Rh+3].c1ccc(-c2ccnc3c2ccc2c(-c4ccccc4)ccnc23)cc1.c1ccc(-c2ccnc3c2ccc2c(-c4ccccc4)ccnc23)cc1.c1ccc(-c2ccnc3c2ccc2c(-c4ccccc4)ccnc23)cc1
Reply: middle range

* * *

- Tested on: OVCAR-5 ovarian
- Protocol details: NCI-60 one-dose screen, 48 h (100 = growth as untreated, 0 = no growth, -100 = all killed)
- Experimental conditions: 10 µM unless noted
The panel holds about 83,000 compounds, 20% with a hit somewhere; the sample as a whole holds those more often.
Catalogue of growth values
Supply the numeric figure in %, leaving out any unit text.

// known answers, use as guide
INSERT INTO results (molecule, metric_name, result_number) VALUES
  ('CC12CCC(O)CC1=CCC1C2CCC2(C)C3=NN=CC3CC12 (stereo unspecified)', 'growth', 106),
  ('OC(Cc1cc(CC(O)(C(F)(F)F)C(F)(F)F)nc(CC(O)(C(F)(F)F)C(F)(F)F)c1)(C(F)(F)F)C(F)(F)F', 'growth', 16.1),
  ('Cc1cc(N/N=C/c2ccccn2)nc2ccccc12', 'growth', 37.9),
  ('N=C(N)Sc1cccc[n+]1[O-]', 'growth', 98.2),
  ('CCCOC(=O)c1nc(N(CC2CCCCC2)C(=O)NC)sc1/N=C/c1ccccc1', 'growth', 40);

Task item: So what's the measured growth for this one? CCCCCCCCCCCCCCCCSC(=NCC)NCC
Reply: 44.5

Task item: So what's the measured growth for this one? CC(=O)c1c(O)c(C)c(O)c2c1OC1=CC(=O)C(C(C)=O)C(=O)C12C (stereo unspecified)
Reply: 88.3

Task item: So what's the measured growth for this one? COc1ccc2c(c1OC)OCC(CN(C)C)C2=O (stereo unspecified)
Reply: 92.9

Task item: So what's the measured growth for this one? CCCCCC[C@@H](O)C/C=C\CCCCCCCC(=O)OCCOC
Reply: 103

Task item: So what's the measured growth for this one? c1ccc(-c2cc3cc4ccccc4cn3c2)cc1
Reply: 112

Task item: So what's the measured growth for this one? CN(C)CCSC1=Nc2ccc(Cl)cc2C(c2ccccc2Cl)N(C)C1 (stereo unspecified)
Reply: 88.4

* * *

- System: OVCAR-5 ovarian
- Protocol details: NCI-60 one-dose screen, 48 h (100 = growth as untreated, 0 = no growth, -100 = all killed)
- Experimental conditions: 10 µM unless noted
Compounds without any hit were thinned out: in the full panel of roughly 83,000, 20% have a hit. Active and inactive are the calls of the source. The calls were made as follows: active = growth percent below 10; inactive = the rest.
Metric name: growth

Task item: So what's the measured growth for this one? CCOc1cc(F)c([N+](=O)[O-])cc1[N+](=O)[O-]
Reply: 77.9% (inactive)

* * *

- System: DU-145 prostate
- Protocol details: NCI-60 one-dose screen, 48 h
- Experimental conditions: 10 µM unless noted
Compounds without any hit were thinned out: in the full panel of roughly 83,000, 20% have a hit. The source made the active and inactive calls. Rule for the calls: active = growth percent below 10; inactive = the rest.
Outcomes you can answer with include only these: active, inactive

The examples below pair each entry with its known result.
INSERT INTO assay_data (molecule, category) VALUES
  ('O=C(O)c1cc2c(s1)C(=O)c1sccc1C2=O', 'active'),
  ('N#CC(=C1SCS1)[N+](=O)[O-]', 'active'),
  ('COc1ccc(C(OCC2OC(n3ccc(NC(=O)c4ccccc4)nc3=O)C(O)C2O)(c2ccccc2)c2ccccc2)cc1 (stereo unspecified)', 'inactive'),
  ('Oc1c(Cl)cc(Cl)cc1C(c1cc(Cl)cc(Cl)c1O)C(Cl)(Cl)Cl', 'inactive'),
  ('O=[N+]([O-])c1ccc(C2N(Cc3ccc(Cl)cc3)CCN2Cc2ccc(Cl)cc2)cc1', 'inactive');

Task item: Lab log entry: CN1CCC(c2ccccc2)(c2ccccc2)C(=O)C1 — outcome as called in the assay?
Reply: inactive

Task item: Lab log entry: CCCCCCCCCCCC[n+]1ccccc1 (tested in a mixture with another compound) — outcome as called in the assay?
Reply: inactive

Task item: Lab log entry: O=C1/C(=C/c2ccccc2)CCC/C1=C\c1ccccc1 — outcome as called in the assay?
Reply: inactive

Task item: Lab log entry: O=C1CSC(=S)N1Cc1cccnc1 — outcome as called in the assay?
Reply: inactive

Task item: Lab log entry: Cc1cc(I)nc2ccccc12 — outcome as called in the assay?
Reply: inactive

Task item: Lab log entry: CCCCC(CCc1ccc([N+](=O)[O-])cc1)(C(C)=O)C(=O)OCC (stereo unspecified) — outcome as called in the assay?
Reply: inactive

* * *

- Tested on: SK-OV-3 ovarian
- Protocol details: NCI-60 one-dose screen, 48 h (100 = growth as untreated, 0 = no growth, -100 = all killed)
- Experimental conditions: 10 µM unless noted
About 83,000 compounds went through this panel and 20% of them were active in at least one assay; those are over-represented in the sample as a whole.
Metric name: growth (%)
Supply the numeric figure in %, leaving out any unit text.

INSERT INTO assay_data (molecule, system_tested, result_number) VALUES
  ('CCN(CC)CC(O)c1cc(-c2ccc(Cl)cc2)nc2cc(Cl)ccc12 (centres undefined)', 'SK-OV-3 ovarian', 60);

Task item: So what's the measured growth for this one? CC(=O)OC1CC2CCC1(C)C2(C)C (centres undefined)
Reply: 111

Task item: So what's the measured growth for this one? CC(C)(C)c1ccc(O)c(-c2ccccc2)c1
Reply: 114

* * *

- System: SK-MEL-2 melanoma
- Protocol details: NCI-60 one-dose screen, 48 h
- Experimental conditions: 10 µM unless noted
Compounds without any hit were thinned out: in the full panel of roughly 83,000, 20% have a hit. Calls of active or inactive are those of the source. The calls were made as follows: active = growth percent below 10; inactive = the rest.
Outcomes you can answer with include only these: class 1 for active, class 0 for inactive

The examples below pair each entry with its known result.
INSERT INTO assay_data (compound, category) VALUES
  ('Cc1cc(N/N=C/c2ccccn2)nc2ccccc12', 'class 0'),
  ('CCN(CC)CC(O)CNc1ccc(NCC2CO2)c2c1C(=O)c1ccccc1C2=O (configuration not stated)', 'class 1'),
  ('COc1ccc2nc3cc(Cl)ccc3c(NCCCCCN3CCCCC3)c2c1', 'class 1'),
  ('O=C(Cc1nc2cc(Cl)c(Cl)cc2nc1CC(=O)c1ccccc1)c1ccccc1', 'class 0'),
  ('CC(CSc1n[nH]c(=S)s1)c1ccccc1 (configuration not stated)', 'class 0'),
  ('CC(=O)C1Cc2ccccc2C1=O (configuration not stated)', 'class 0'),
  ('O=C(CCl)N1c2ccccc2Sc2c1ccc1ccccc21', 'class 0'),
  ('COc1cccc2c1C(=O)c1c(O)c3c(c(O)c1C2=O)C[C@@](O)(C(=O)CO)C[C@@H]3OC1CC(OC(C)=O)C(OC(C)=O)C(C)O1 (some centres not stated)', 'class 1');

Here is the next item to consider.
Task item: Lab log entry: CCNc1nnnn1CC — outcome as called in the assay?
Reply: class 0
